molecular target: MAP2K2 (human) (UniProt P36507); assay: radiometric filter-binding kinase assay, Kinase HotSpot; details: compound 0.5 µM; ATP 10 µM
Sequence (P36507 whole entry, looked up): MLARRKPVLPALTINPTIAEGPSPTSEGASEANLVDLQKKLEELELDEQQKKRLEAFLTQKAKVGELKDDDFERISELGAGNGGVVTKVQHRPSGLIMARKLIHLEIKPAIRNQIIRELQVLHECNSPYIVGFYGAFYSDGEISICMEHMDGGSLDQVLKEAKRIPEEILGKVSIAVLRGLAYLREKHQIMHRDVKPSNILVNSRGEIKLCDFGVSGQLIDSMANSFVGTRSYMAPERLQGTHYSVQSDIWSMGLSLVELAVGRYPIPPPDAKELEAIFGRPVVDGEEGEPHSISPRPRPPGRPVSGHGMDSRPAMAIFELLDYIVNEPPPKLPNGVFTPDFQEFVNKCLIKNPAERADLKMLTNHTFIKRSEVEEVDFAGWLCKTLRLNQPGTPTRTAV
metric-name: residual activity (%)

CCN(CC)CCCCN1c2ccccc2Oc2ccc(Cl)cc21: 88.4
Nc1nnc2[nH]c3ccccc3nc1-2: 104
O=C1Nc2ccccc2/C1=C1/Nc2ccccc2/C1=N\OCCC(O)CO (stereo not drawn): 86.5
Cn1cnc2cc3c(Nc4cccc(Br)c4)ncnc3cc21: 101
O=C(Nc1cccc(Nc2cc(Nc3cccc(C(F)(F)F)c3)ncn2)c1)C1CC1: 101
CCn1cnc2c(Nc3cccc(Cl)c3)nc(N[C@@H]3CCCC[C@@H]3N)nc21: 107
CC(C)c1nn(-c2c(Cl)cccc2Cl)c2nc(Cc3ccc(OCCO)cc3)nc(O)c12: 98.5
O=C1NC(=O)C(c2c[nH]c3ccccc23)=C1c1c[nH]c2ccccc12: 82.7
CN([C@@H](Cc1ccc(OS(=O)(=O)c2cccc3cnccc23)cc1)C(=O)N1CCN(c2ccccc2)CC1)S(=O)(=O)c1cccc2cnccc12: 119
CC(=O)O/N=C1\C(=C2\C(=O)Nc3cc(Br)ccc32)Nc2ccccc21: 83.1
COc1cc2ncnc(N3CCN(C(=O)Nc4ccc(Oc5ccccc5)cc4)CC3)c2cc1OC: 99.3
COc1ccc(OC)c2c(=S)c3ccccc3[nH]c12: 100
Cn1nc2c3c(cccc31)C(=O)c1ccccc1-2: 102
Cn1sc(=O)n(Cc2ccccc2)c1=O: 101
COc1cc2ncc(-c3ccccc3)nc2cc1OC: 102
O=C1Nc2ccccc2/C1=C1\Nc2ccccc2\C1=N/O: 100
Oc1ccc(Nc2nc(-c3ccc(Cl)cc3)cs2)cc1: 109
CC(C)[C@H](CO)Nc1nc(Nc2cc(N)cc(Cl)c2)c2ncn(C(C)C)c2n1: 87.5
O=C1Cc2c([nH]c3ccc(Br)cc23)-c2ccccc2N1: 116
Nc1nccc(-c2c(-c3ccc(F)cc3)ncn2C2CCNCC2)n1: 105
O=C1NC(=O)C(c2cn(CCCO)c3ncccc23)=C1c1cnccn1: 90.3
Cc1nc2cc3nc(-c4cccs4)cnc3cc2n1C: 77.5
O=C1NC(=O)/C(=C\c2ccc3nccnc3c2)S1: 93.5

Numbers sourced from the kinase profiling compilation of Christmann-Franck et al. (2016).
